Entries and their measured yeast fitness follow.
B1: tRNA (parent)
chain: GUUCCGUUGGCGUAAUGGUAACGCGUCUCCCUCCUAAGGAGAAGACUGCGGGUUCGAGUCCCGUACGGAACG

- Variants of: B1
- ASSAY COMMENT: yeast fitness relative to wild type (ratio to wild type); higher = fitter; tRNA-Arg(CCU), competitive growth, 37 C, YPD
Fewer inactive variants are shown than the library holds.

Answered examples (6):
MUTATION LIST	yeast fitness
G12A U16C C27A A70C	≤ 0.5
G6U G63C	0.615
C27A A36G G68A	≤ 0.5
U13A A15G A65G	0.877
U32C G39C G50C	≤ 0.5
G25A G41A G67A	0.59

input: Recall and state the measured yeast fitness for A20U G25C .
output: 0.885

input: Give reported yeast fitness value for C27G A45U C49U
output: ≤ 0.5
